# system name: rat alpha-glucosidase
# assay remarks: Inhibitory activity on rat alpha-glucosidase (rat intestinal acetone powder enzyme, maltose substrate, glucose read-out)
# test parameters: mean ± SD
Each entry below carries its reported pIC50.
Kindly note that pIC50 refers to -log10 of the concentration in mol/L and answer with the value alone.

Some solved cases for reference:
compound	pIC50
O=C(O)c1cc(O)c(O)c(O)c1 [GA, gallic acid, reference compound]	2.99
Oc1cc(O)c2c(c1)O[C@H](c1cc(O)c(O)c(O)c1)[C@H](O)C2 [EGC, (−)-epigallocatechin]	3.15
C[C@H]1O[C@H](O[C@H]2[C@H](O)[C@@H](O)[C@@H](O[C@H]3[C@H](O)[C@@H](O)C(O)O[C@@H]3CO)O[C@@H]2CO)[C@H](O)[C@@H](O)[C@@H]1N[C@H]1C=C(CO)[C@@H](O)[C@H](O)[C@H]1O (stereo partly shown) [acarbose, reference compound]	5.66

Lab note: next compound to report on.
Asked: Look up pIC50 of Oc1cc(O)c2c(c1)O[C@@H](c1cc(O)c(O)c(O)c1)[C@H](O)C2 [GC, (−)-gallocatechin] and report it.
Given back: 3.10

* * *

# system name: human alpha-glucosidase (Homo sapiens)
# Construct: cultured for 14 days to differentiate into small intestinal epithelial-like cells
# Sequence (P14410 whole entry): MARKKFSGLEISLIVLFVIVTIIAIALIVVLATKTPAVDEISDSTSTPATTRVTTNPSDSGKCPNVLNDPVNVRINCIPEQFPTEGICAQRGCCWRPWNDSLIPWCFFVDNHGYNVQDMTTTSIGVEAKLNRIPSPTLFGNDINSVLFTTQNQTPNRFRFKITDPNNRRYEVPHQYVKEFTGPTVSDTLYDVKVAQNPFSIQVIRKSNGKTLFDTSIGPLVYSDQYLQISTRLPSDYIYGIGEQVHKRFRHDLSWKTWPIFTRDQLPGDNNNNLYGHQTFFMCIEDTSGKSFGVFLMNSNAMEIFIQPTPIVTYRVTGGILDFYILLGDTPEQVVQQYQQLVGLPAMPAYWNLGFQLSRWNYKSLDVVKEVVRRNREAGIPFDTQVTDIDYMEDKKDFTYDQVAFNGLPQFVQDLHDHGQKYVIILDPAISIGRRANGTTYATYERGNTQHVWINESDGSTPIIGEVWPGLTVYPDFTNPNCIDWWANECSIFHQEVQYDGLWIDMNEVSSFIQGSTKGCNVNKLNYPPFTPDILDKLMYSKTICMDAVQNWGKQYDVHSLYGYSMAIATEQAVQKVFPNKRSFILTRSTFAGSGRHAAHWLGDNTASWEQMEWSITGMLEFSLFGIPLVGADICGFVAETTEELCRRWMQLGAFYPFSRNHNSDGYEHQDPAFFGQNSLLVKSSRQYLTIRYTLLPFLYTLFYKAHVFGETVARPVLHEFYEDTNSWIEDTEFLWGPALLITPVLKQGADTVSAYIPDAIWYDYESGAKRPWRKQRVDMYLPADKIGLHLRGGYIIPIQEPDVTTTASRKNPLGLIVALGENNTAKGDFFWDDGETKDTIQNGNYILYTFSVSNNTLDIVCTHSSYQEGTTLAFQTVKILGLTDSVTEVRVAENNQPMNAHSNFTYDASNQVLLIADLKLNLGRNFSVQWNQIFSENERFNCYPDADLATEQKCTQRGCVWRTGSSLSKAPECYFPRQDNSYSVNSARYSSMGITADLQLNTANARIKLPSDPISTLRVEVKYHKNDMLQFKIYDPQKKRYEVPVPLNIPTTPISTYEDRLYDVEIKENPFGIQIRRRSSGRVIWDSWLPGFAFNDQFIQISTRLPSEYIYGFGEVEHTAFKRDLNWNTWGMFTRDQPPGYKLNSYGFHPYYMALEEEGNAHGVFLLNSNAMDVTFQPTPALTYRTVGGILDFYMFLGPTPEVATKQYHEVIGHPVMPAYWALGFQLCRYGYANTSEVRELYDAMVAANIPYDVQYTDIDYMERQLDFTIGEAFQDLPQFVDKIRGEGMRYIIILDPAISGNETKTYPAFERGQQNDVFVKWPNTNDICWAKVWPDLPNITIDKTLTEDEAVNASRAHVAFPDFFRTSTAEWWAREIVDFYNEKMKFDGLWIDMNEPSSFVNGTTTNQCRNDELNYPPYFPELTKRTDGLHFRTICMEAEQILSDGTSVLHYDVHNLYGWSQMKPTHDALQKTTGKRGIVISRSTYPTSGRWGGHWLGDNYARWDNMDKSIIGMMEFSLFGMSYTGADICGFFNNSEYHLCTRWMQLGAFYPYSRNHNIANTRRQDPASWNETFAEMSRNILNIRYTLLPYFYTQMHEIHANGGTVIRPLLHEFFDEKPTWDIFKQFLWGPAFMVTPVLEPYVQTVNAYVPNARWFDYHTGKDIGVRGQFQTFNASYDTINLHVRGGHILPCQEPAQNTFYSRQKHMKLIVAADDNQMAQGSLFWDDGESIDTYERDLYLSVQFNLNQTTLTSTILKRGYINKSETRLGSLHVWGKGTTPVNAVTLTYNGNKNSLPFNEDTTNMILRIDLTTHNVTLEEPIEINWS
# assay remarks: Inhibitory activity on human alpha-glucosidase in differentiated Caco-2 cells (maltose substrate)
# test parameters: mean ± SD
measure: IC50 (µM)
All answers are understood in µM, so give the number only.

molecule	system name	IC50 / µM
Oc1cc(O)c2c(c1)O[C@H](c1ccc(O)c(O)c1)[C@H](O)C2 [EC, (−)-epicatechin]	human alpha-glucosidase (Homo sapiens)	134
O=C(O[C@@H]1Cc2c(O)cc(O)cc2O[C@@H]1c1cc(O)c(O)c(O)c1)c1cc(O)c(O)c(O)c1 [EGCg, (−)-epigallocatechin-3-gallate]	human alpha-glucosidase (Homo sapiens)	90.7
O=C(O[C@@H]1Cc2c(O)cc(O)cc2O[C@@H]1c1ccc(O)c(O)c1)c1cc(O)c(O)c(O)c1 [ECg, (−)-epicatechin-3-gallate]	human alpha-glucosidase (Homo sapiens)	78.4

Let us move to another entry and its IC50.
Asked: Please indicate IC50 recorded for Oc1cc(O)c2c(c1)O[C@H](c1cc(O)c(O)c(O)c1)[C@H](O)C2 [EGC, (−)-epigallocatechin]
Given back: 214
